measuredOn: T1, UNK ZnF1-6 (called full-length) (human, UniProt Q9C0B0 30-357)
T1 sequence: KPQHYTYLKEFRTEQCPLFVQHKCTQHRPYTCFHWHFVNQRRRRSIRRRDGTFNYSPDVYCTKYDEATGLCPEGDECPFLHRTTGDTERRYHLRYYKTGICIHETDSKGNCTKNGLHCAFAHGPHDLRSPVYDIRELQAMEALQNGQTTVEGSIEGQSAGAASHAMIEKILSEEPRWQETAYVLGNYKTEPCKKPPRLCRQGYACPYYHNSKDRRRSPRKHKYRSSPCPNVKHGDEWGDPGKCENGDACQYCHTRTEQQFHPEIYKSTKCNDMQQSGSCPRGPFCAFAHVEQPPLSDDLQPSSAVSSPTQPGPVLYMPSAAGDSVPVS
methodDescription: nsRBNS (natural sequence RNA bind-n-seq); RBNS binding buffer (assumed for nsRBNS): 25 mM Tris pH 7.5, 150 mM KCl, 3 mM MgCl2, 0.01% Triton X-100, 500 ug/ml BSA, 20 U/ml SUPERase-In, 4 C; UNK is unkempt and MSI1 is Musashi-1; names of the RNAs are library labels; protein concentration not given here; high values mean tight binding
Over roughly 5,800 sequences, “enrichment r” has its median near 0.68; the highest 2% begin near 11. This is one part of a sample in which the highest values are shown more often than they occur.
readout: binding signal (enrichment R)
Give bare numbers, in enrichment R.

// below: answered binders
chr19:33301014:33301115:-|3pUTR|ENSG00000245848|unk|FALSE|unique (ssRNA) RNA: GGGAGUUCUACAGUCCGACGAUCUCCCUGCGAGGAGGGGAGAAUUCUUGGGGCUGAGCUGGGAGCCCGGCAACUCUAGUAUUUAGGAUAACCUUGUGCCUUGGAAAUGCAAACUCACCGCUCCAAUGCCUACUGAGUAGGGGGCAACAGAGGAUUGAGCAUCA = 4.16
chr8:41543231:41543332:+|3pUTR|ENSG00000147536|msi1|FALSE|unique (ssRNA) RNA: GGGAGUUCUACAGUCCGACGAUCAAACCAUUAUUAAAUUUCCAUUCUGCAGCAGAAGGCACCUCUGGACGGCUCCCGGCUUGUAGUUUAAUGAAGUAUGUGCUCCCUGCUGUUAACCCGCAGCCCUCCCCAACUCUCCAGCAGCAACAGAGGAUUGAGCAUCA = 11.4
ENSG00000070961:be:win_5101|3pUTR|ENSG00000070961|bound_else_gene|NA|bound_elsewhere_windowed (ssRNA) RNA: GGGAGUUCUACAGUCCGACGAUCAUGACCACCAUUGUCUUUGAUACAUUUAUUUUAAUUCUUAAGUGGCCAAAUAACAGAUUAGGUAAAAUGAGAUUACAUGAAAAGGUUCUAAAAUGAUAUAUUUAGAUGCAAUAAUUAACCCAACAGAGGAUUGAGCAUCA = 3.73
chr15:78283234:78283431:-|three_prime_utr|ENSG00000140395|control|control|control (ssRNA) RNA: GGGAGUUCUACAGUCCGACGAUCUCUCCAGGCUUAUGCUGCAAAGAGAAUGUACGGAUUGAUCAUGACAUUCCUUACCUUCUUAGGCUUGUUUAAAAGAAAUAUAGCAUUUAUUGUAGCAAAGACUUAAAUUUUGUAGAUACACAACAGAGGAUUGAGCAUCA = 13.8

Hi, could you look up binding signal for each item in my list?
1. ENSG00000176244:stop:overlap|stop_codon|ENSG00000176244|stop_codon|NA|stop_codon (ssRNA) RNA: GGGAGUUCUACAGUCCGACGAUCAAGAUGCGACGAGUGCCUAUAUUUCUAAAGCAAAGGAGCUGAUAGAAAAAUACGGAAUUUAGAAUACAGCAUAUGAGGAAUUUUUCCUUUUGAAGACUUCCAAAUGCUAUCAUGACCUAACAACAGAGGAUUGAGCAUCA
2. ENSG00000124766:be:win_2851|3pUTR|ENSG00000124766|bound_else_gene|NA|bound_elsewhere_windowed (ssRNA) RNA: GGGAGUUCUACAGUCCGACGAUCUAAUCAGAUGCCAUUUUAUAUGUGGACGUAUUUAUACUGGCCAAACAUAUUUUUUCUUUUGUCCCUUUUUUUCUUUCCUUUCUUUUUACUUCCUUUAUUUCUUUAUUCCUUCCUUUUCCUCAACAGAGGAUUGAGCAUCA
3. chr3:31636526:31636632:+|3pUTR|ENSG00000163527|unk|FALSE|unique (ssRNA) RNA: GGGAGUUCUACAGUCCGACGAUCCAAAAUGUGAUGAGAGCUUCUUGAACCGGUAAACUAGUACAGGUCUGAGAAAGACAUAUUAGAAGAAUCAUUAUACUUCCUUGAAUUAUAUUUAUUUUCAUGUUUCUCUAAUGCAAAGAACAACAGAGGAUUGAGCAUCA

Response given:
[0.808, 8, 1.21]

Values compiled from paper PMC12136788.
